tested on: Vero E6; test: cell viability relative to DMSO; higher = less toxic; conditions: 72 h; 1000 nM
So I've got a bunch of molecules here, and I need their cell viability values.
Answers are plain numbers, in %.

Check out these entries, answers already filled in.
Ask: Entry `CNCc1ccc(-c2[nH]c3cc(F)cc4c3c2CCNC4=O)cc1` : reported cell viability = ?
Result: 93.7

Ask: Entry `C=CCc1cccc(/C=N/NC(=O)CN2CCN(Cc3ccccc3)CC2)c1O` : reported cell viability = ?
Result: 95.9

Ask: Entry `NC(=O)c1[nH]cnc1O` : reported cell viability = ?
Result: 103

Ask: Entry `CC(C)Oc1cccc(-n2c(CCc3c[nH]c4ccc(Br)cc34)nc3ccccc3c2=O)c1` : reported cell viability = ?
Result: 99.7

Ask: Entry `CCC(=O)O[C@@H]1CC(=O)O[C@H](C)C/C=C/C=C/[C@H](OC(C)=O)[C@H](C)C[C@H](CC=O)[C@H](O[C@@H]2O[C@H](C)[C@@H](O[C@H]3C[C@@](C)(OC(C)=O)[C@@H](OC(=O)CC)[C@H](C)O3)[C@H](N(C)C)[C@H]2O)[C@H]1OC` : reported cell viability = ?
Result: 99.1

Ask: Entry `CC(C)(C)[C@H]1CC[C@H](CC2=C(O)C(=O)c3ccccc3C2=O)CC1` : reported cell viability = ?
Result: 82.7

Ask: Entry `CCCC(C(=O)OCCN(CC)CC)(c1ccccc1)c1ccccc1` : reported cell viability = ?
Result: 97.3

Now look at this one.
Ask: Entry `COc1ccc(OC[C@@H]2c3cc(OC)c(OC)cc3CCN2C(=O)c2cccc(Cl)c2)cc1` : reported cell viability = ?
Result: 94
